Source of measurements: ChEMBL document CHEMBL4706620

system: K562; experiment: Antiproliferative activity against human K562 cells assessed as reduction in cell growth measured after 72 hrs by CCK8 assay; type: functional, cell-based; settings: K562, 72 h
Friendly reminder: IC50 below 4 µM is true, at or above is false.

Use these answered entries as a reference point.
O=C(Nc1c[nH]nc1-c1nc(-c2ccc(CN3CCCCC3)cc2)c[nH]1)c1cccc(Cl)c1
true
O=C(Nc1c[nH]nc1-c1nc(-c2ccc(CN3CCOCC3)cc2)c[nH]1)c1ccc([N+](=O)[O-])cc1
false
Cc1nc(Cl)cc(Nc2c[nH]nc2-c2nc(-c3ccc(CN4CCOCC4)cc3)c[nH]2)n1
false
COc1ccc(C(=O)Nc2c[nH]nc2-c2nc(-c3ccc(CN4CCCCC4)cc3)c[nH]2)cc1
false

Prompt line: Here's an entry: "O=C(Nc1c[nH]nc1-c1nc(-c2ccc(CN3CCCCC3)cc2)c[nH]1)c1ccc(Cl)cc1" . Is its IC50 below 4 µM?
Response line: false

Prompt line: Here's an entry: "O=C(Nc1c[nH]nc1-c1nc(-c2ccc(CN3CCOCC3)cc2)c[nH]1)c1ccc(Cl)cc1" . Is its IC50 below 4 µM?
Response line: true

Prompt line: Here's an entry: "COc1ccc(C(=O)Nc2c[nH]nc2-c2nc(-c3ccc(CN4CCOCC4)cc3)c[nH]2)cc1" . Is its IC50 below 4 µM?
Response line: false

Prompt line: Here's an entry: "O=C(Nc1c[nH]nc1-c1nc(-c2ccc(CN3CCOCC3)cc2)c[nH]1)c1ccccc1" . Is its IC50 below 4 µM?
Response line: false

Prompt line: Here's an entry: "CSc1nc(Cl)c(C)c(Nc2c[nH]nc2-c2ncc(-c3ccc(OCCCN4CCOCC4)cc3)[nH]2)n1" . Is its IC50 below 4 µM?
Response line: false

Prompt line: Here's an entry: "O=C(Nc1c[nH]nc1-c1nc(-c2ccc(CN3CCOCC3)cc2)c[nH]1)c1cccc(Cl)c1" . Is its IC50 below 4 µM?
Response line: false

* * *

Molecular target: Aurora kinase A (Homo sapiens)
Sequence (O14965 whole entry): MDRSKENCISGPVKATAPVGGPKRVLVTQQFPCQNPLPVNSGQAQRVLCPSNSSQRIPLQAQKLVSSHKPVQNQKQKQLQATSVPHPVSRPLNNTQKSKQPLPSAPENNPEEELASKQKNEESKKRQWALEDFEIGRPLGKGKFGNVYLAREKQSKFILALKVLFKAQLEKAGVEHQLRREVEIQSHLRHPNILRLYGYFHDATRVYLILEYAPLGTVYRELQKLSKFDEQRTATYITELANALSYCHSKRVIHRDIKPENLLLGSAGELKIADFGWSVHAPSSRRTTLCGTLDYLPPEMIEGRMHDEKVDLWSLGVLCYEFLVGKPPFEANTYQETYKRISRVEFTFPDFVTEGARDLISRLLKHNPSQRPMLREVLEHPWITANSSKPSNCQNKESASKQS
PROPERTY: pIC50
pIC50 is a log-scale quantity: -log10 of the concentration expressed in molar.

Solved cases below.
O=C(Nc1c[nH]nc1-c1nc(-c2ccc(CN3CCOCC3)cc2)c[nH]1)c1ccc(Cl)cc1
5.60
COc1ccc(C(=O)Nc2c[nH]nc2-c2nc(-c3ccc(CN4CCOCC4)cc3)c[nH]2)cc1
6.44
O=C(Nc1c[nH]nc1-c1nc(-c2ccc(CN3CCCCC3)cc2)c[nH]1)c1ccc(Cl)cc1
5.69
Cc1nc(Cl)cc(Nc2c[nH]nc2-c2nc(-c3ccc(CN4CCOCC4)cc3)c[nH]2)n1
6.84

From here, focus on the item given below.
Prompt line: Consider the molecule shown here: "O=C(Nc1c[nH]nc1-c1nc(-c2ccc(CN3CCCCC3)cc2)c[nH]1)c1cccc(Cl)c1" What is its recorded pIC50?
Response line: 5.95

* * *

Biological target: Tyrosine-protein kinase JAK3 (Homo sapiens)
Sequence (P52333 whole entry): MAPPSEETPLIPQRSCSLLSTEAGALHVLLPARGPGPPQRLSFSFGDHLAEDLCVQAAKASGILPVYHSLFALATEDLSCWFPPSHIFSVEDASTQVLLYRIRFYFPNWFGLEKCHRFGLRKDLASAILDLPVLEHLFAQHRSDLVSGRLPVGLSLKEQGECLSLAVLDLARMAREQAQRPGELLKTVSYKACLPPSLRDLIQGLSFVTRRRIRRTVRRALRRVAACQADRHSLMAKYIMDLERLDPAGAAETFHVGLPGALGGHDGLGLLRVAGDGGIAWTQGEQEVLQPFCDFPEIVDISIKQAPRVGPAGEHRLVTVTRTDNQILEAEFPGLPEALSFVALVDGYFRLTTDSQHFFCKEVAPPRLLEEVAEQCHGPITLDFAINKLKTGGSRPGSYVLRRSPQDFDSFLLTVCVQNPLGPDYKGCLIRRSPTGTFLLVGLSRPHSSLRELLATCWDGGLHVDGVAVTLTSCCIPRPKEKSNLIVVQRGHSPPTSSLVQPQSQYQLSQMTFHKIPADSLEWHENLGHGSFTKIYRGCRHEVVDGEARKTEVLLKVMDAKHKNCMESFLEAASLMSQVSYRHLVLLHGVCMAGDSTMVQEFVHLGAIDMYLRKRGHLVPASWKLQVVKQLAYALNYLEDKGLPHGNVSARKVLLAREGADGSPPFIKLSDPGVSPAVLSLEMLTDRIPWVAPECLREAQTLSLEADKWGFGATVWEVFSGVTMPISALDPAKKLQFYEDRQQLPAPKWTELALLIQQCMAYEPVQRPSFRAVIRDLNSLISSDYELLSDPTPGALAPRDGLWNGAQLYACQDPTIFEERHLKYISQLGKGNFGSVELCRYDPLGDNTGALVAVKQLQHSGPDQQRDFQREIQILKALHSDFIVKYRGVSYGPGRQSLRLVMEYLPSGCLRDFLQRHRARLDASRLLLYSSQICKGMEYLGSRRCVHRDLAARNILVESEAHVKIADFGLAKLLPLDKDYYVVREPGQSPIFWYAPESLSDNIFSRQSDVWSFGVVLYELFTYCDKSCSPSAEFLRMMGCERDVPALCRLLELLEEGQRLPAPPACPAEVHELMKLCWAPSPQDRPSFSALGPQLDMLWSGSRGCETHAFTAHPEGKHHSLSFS
PROPERTY: IC50 (nM)
Just the number in nM, nothing appended.

O=C(Nc1c[nH]nc1-c1nc(-c2ccc(CN3CCOCC3)cc2)c[nH]1)c1ccc(Cl)cc1
64

From here, focus on the item given below.
Prompt line: Consider the compound shown here: "O=C(Nc1c[nH]nc1-c1nc(-c2ccc(CN3CCCCC3)cc2)c[nH]1)c1cccc(Cl)c1" What is its recorded IC50?
Response line: 13

* * *

A collection of compounds and their measured pIC50
tested on: HCT-116; experiment: Antiproliferative activity against human HCT116 cells assessed as reduction in cell growth measured after 72 hrs by CCK8 assay; type: functional, cell-based; conditions: HCT-116, 72 h
pIC50 is a log-scale quantity: -log10 of the concentration expressed in molar.

Solved cases below.
O=C(Nc1c[nH]nc1-c1nc(-c2ccc(CN3CCCCC3)cc2)c[nH]1)c1ccc(Cl)cc1
5.80
O=C(Nc1c[nH]nc1-c1nc(-c2ccc(CN3CCOCC3)cc2)c[nH]1)c1cccc(Cl)c1
4.82
O=C(Nc1c[nH]nc1-c1nc(-c2ccc(CN3CCOCC3)cc2)c[nH]1)c1ccc([N+](=O)[O-])cc1
5.28

From here, focus on the item given below.
Prompt line: Consider the compound shown here: "CSc1nc(Cl)c(C)c(Nc2c[nH]nc2-c2ncc(-c3ccc(OCCCN4CCOCC4)cc3)[nH]2)n1" What is its recorded pIC50?
Response line: 4.79
